# targetUnderTest: KRAS G12V (Homo sapiens, UniProt P01116+P62937, G12V)
# Sequence (P01116 1-169 isoform P01116-2 G12V limits assumed): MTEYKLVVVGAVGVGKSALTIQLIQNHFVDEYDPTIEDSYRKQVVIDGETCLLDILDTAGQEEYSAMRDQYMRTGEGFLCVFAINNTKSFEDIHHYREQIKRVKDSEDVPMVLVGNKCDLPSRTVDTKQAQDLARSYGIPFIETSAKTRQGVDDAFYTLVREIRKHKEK
# Sequence (P62937 whole entry): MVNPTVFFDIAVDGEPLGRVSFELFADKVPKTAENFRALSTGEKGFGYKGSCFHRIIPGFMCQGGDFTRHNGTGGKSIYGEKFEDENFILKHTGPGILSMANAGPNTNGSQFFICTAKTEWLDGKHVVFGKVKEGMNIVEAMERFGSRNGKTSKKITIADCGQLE
# experimentDescription: Ras-Raf disruption / FRET / MOA assay (BRAF RBD)
# Assay type: biochemical
# runConditions: KRAS G12V FRET data IC50, Ras-Raf disruption, with Cyclophilin A
For each entry below, report its IC50 value.

These solved cases illustrate the format of a correct answer.
INSERT INTO results (compound, valuetype, recordedvalue) VALUES
  ('CCn1c(-c2cccnc2[C@H](C)OC)c2c3cc(ccc31)-c1cc(O)cc(c1)C[C@H](NC(=O)[C@H](C(C)C)N(C)C(=O)CN(C)C(=O)[C@H]1CN1C(C)C)C(=O)N1CCC[C@H](N1)C(=O)OCC(C)(C)C2 (stereo partly drawn)', 'IC50', '100 to 1000 nM'),
  ('CCn1c(-c2cc(N3CCN(C)CC3)cnc2[C@H](C)OC)c2c3cc(ccc31)-c1cc(O)cc(c1)C[C@H](NC(=O)[C@H](C1CCCC1)N(C)C(=O)CN(C)C(=O)[C@H]1CN1)C(=O)N1CCC[C@H](N1)C(=O)OCC(C)(C)C2', 'IC50', '10 to 100 nM'),
  ('CCn1c(-c2cccnc2[C@H](C)OC)c2c3cc(ccc31)-c1cc(O)cc(c1)C[C@H](NC(=O)[C@H](C1CCCC1)N(C)C(=O)CN(C)C(=O)[C@@H]1N[C@@H]1C1CC1)C(=O)N1CCC[C@H](N1)C(=O)OCC(C)(C)C2', 'IC50', '10 to 100 nM');

# per-item lookup of IC50; items listed below
1. CCn1c(-c2cccnc2[C@H](C)OC)c2c3cc(ccc31)-c1cc(O)cc(c1)C[C@H](NC(=O)[C@H](C(C)C)N(C)C(=O)CN(C)C(=O)[C@H]1CN1CC1(C)COC1)C(=O)N1CCC[C@H](N1)C(=O)OCC(C)(C)C2 (stereo partly drawn)
2. CCn1c(-c2cccnc2[C@H](C)OC)c2c3cc(ccc31)-c1cc(O)cc(c1)C[C@H](NC(=O)[C@H](C1CCCC1)N(C)C(=O)CN(C)C(=O)[C@H]1N[C@H]1C1(C#N)CC1)C(=O)N1CCC[C@H](N1)C(=O)OCC(C)(C)C2
3. CCn1c(-c2cccnc2[C@H](C)OC)c2c3cc(ccc31)-c1cc(O)cc(c1)C[C@H](NC(=O)[C@H](C(C)C)N(C)C(=O)CN(C)C(=O)[C@H]1CN1CCO)C(=O)N1CCC[C@H](N1)C(=O)OCC(C)(C)C2 (stereo partly drawn)
4. CCn1c(-c2cccnc2[C@H](C)OC)c2c3cc(ccc31)-c1cc(O)cc(c1)C[C@H](NC(=O)[C@H](C(C)C)N(C)C(=O)[C@H]1CCCN1C(=O)[C@H]1CN1)C(=O)N1CCC[C@H](N1)C(=O)OCC(C)(C)C2

Ans.
["10 to 100 nM", "10 to 100 nM", "10 to 100 nM", "100 to 1000 nM"]

Could I get IC50 for every one of these entries?
1. CCn1c(-c2cccnc2[C@H](C)OC)c2c3cc(ccc31)-c1cc(O)cc(c1)C[C@H](NC(=O)[C@H](C(C)C)N(C)C(=O)CNC(=O)[C@@H]1N[C@@H]1C1CC1)C(=O)N1CCC[C@H](N1)C(=O)OCC(C)(C)C2
2. CCn1c(-c2cnccc2COC)c2c3cc(ccc31)-c1cc(O)cc(c1)C[C@H](NC(=O)[C@H](C(C)C)N(C)C(=O)CN(C)C(=O)C1CN1)C(=O)N1CCC[C@H](N1)C(=O)OCC(C)(C)C2 (stereo partly drawn)

Ans.
10 to 100 nM
> 10000 nM

###

Assignment: determine reported IC50 for the given molecules.
# targetUnderTest: NRAS Q61K (Homo sapiens, UniProt P01111+P62937, Q61K)
# Sequence (P01111 whole entry Q61K): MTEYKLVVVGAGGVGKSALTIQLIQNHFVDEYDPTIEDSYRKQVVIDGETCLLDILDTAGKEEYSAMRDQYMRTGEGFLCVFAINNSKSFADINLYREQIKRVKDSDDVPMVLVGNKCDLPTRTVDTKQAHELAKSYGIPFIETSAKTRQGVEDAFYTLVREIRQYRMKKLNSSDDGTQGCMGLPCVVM
# Sequence (P62937 whole entry): as the sequence (P62937 whole entry) above
# experimentDescription: Disruption of BRAF RBD interaction with Ras (FRET / MOA assay, with Cyclophilin A)
# Type: biochemical
# runConditions: NRAS Q61K; read-out: NRAS Q61K FRET data IC50

INSERT INTO assay_data (molecule, recordedvalue) VALUES
  ('CCn1c(-c2cccnc2[C@H](C)OC)c2c3cc(ccc31)-c1csc(n1)C[C@H](NC(=O)[C@H](C(C)C)N(C)C(=O)N1CC(S(=O)(=O)NC)C1)C(=O)N1CCC[C@H](N1)C(=O)OCC(C)(C)C2 (atropisomer, axis not shown)', '10 to 100 nM');

Entry CCn1c(-c2cccnc2[C@H](C)OC)c2c3cc(ccc31)-c1cc(O)cc(c1)C[C@H](NC(=O)C(C)Cc1ccncc1)C(=O)N1CCC[C@H](N1)C(=O)OCC(C)(C)C2 (some centres unmarked) — recorded IC50 = 1000 to 10000 nM

###

# targetUnderTest: KRAS Q61H (Homo sapiens, UniProt P01116+P62937, Q61H)
# Sequence (P01116 1-169 isoform P01116-2 Q61H limits assumed, one chain of several): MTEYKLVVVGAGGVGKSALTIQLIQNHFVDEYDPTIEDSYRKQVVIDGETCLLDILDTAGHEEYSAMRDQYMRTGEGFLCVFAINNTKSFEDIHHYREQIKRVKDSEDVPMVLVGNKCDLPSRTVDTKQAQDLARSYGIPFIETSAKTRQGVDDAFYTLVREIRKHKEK
# experimentDescription: Disruption of BRAF RBD interaction with Ras (FRET / MOA assay, with Cyclophilin A)
# Format: biochemical
# runConditions: KRAS Q61H; read-out: KRAS Q61H FRET data IC50
So I've got a bunch of molecules here, and I need their IC50 values.

Please supply IC50 for each of the following items, keeping them in order.
1. CCn1c(-c2cccnc2[C@H](C)OC)c2c3cc(ccc31)-c1csc(n1)C[C@H](NC(=O)[C@H](C(C)C)N(C)C(=O)N1C[C@@H]3CN(C)C[C@@H]31)C(=O)N1CCC[C@H](N1)C(=O)OCC(C)(C)C2 (atropisomer, axis not shown) [Example A446]
2. CCn1c(-c2cccnc2[C@H](C)OC)c2c3cc(ccc31)-c1csc(n1)C[C@H](NC(=O)[C@H](C(C)C)N(C)C(=O)N1C[C@@H]3CN(C)CC[C@@H]31)C(=O)N1CCC[C@H](N1)C(=O)OCC(C)(C)C2 [Example A481]
3. CCn1c(-c2cccnc2[C@H](C)OC)c2c3cc(ccc31)-c1csc(n1)C[C@H](NC(=O)[C@H](C(C)C)N(C)C(=O)N1C[C@H]3CN(C)C[C@H]31)C(=O)N1CCC[C@H](N1)C(=O)OCC(C)(C)C2 [Example A497]
4. CCn1c(-c2cccnc2[C@H](C)OC)c2c3cc(ccc31)-c1csc(n1)C[C@H](NC(=O)[C@H](C(C)C)N(C)C(=O)N1C3CC1CN(C)C3)C(=O)N1CCC[C@H](N1)C(=O)OCC(C)(C)C2 [Example A541]

Ans.
1: 1000 to 10000 nM; 2: 100 to 1000 nM; 3: 100 to 1000 nM; 4: 100 to 1000 nM

###

# targetUnderTest: KRAS G12D (Homo sapiens, UniProt P01116+P62937, G12D)
# Sequence (P01116 1-169 isoform P01116-2 G12D limits assumed): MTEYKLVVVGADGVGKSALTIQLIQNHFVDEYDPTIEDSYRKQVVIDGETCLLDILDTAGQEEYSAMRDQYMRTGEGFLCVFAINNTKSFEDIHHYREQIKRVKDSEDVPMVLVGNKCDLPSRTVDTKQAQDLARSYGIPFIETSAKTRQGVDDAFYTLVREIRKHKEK
# Sequence (P62937 whole entry): as the sequence (P62937 whole entry) above
# experimentDescription: Disruption of BRAF RBD interaction with Ras (FRET / MOA assay, with Cyclophilin A)
# Format: biochemical
# runConditions: read-out: KRAS G12D FRET data, IC50
Hi there, I'd appreciate the recorded IC50 for every entry that follows.

INSERT INTO assay_data (compound, targetundertest, valuetype, recordedvalue) VALUES
  ('CCn1c(-c2cccnc2[C@H](C)OC)c2c3cc(ccc31)-c1csc(n1)C[C@H](NC(=O)[C@H](C(C)C)N(C)C(=O)N1CC[C@H](N(C)C)C1)C(=O)N1CCC[C@H](N1)C(=O)OCC(C)(C)C2', 'KRAS G12D (Homo sapiens, UniProt P01116+P62937, G12D)', 'IC50', '0.1 to 1 µM'),
  ('C=CC(=O)N1CC[C@H](C(=O)N(C)[C@H](C(=O)N[C@H]2Cc3cc(O)cc(c3)-c3ccc4c(c3)c(c(-c3cncc(COC)c3)n4CC)CC(C)(C)COC(=O)[C@@H]3CCCN(N3)C2=O)C(C)C)C1', 'KRAS G12D (Homo sapiens, UniProt P01116+P62937, G12D)', 'IC50', '> 10 µM'),
  ('CCn1c(-c2cccnc2[C@H](C)OC)c2c3cc(ccc31)-c1csc(n1)C[C@H](NC(=O)[C@H](C(C)C)N(C)C(=O)N1CCC13CCOCC3)C(=O)N1CCC[C@H](N1)C(=O)OCC(C)(C)C2 (atropisomer, axis not shown)', 'KRAS G12D (Homo sapiens, UniProt P01116+P62937, G12D)', 'IC50', '0.1 to 1 µM');

Entry `CCn1c(-c2cccnc2[C@H](C)OC)c2c3cc(ccc31)-c1csc(n1)C[C@H](NC(=O)[C@H](C(C)C)N(C)C(=O)O[C@H]1CCOC1)C(=O)N1CCC[C@H](N1)C(=O)OCC(C)(C)C2` , KRAS G12D (Homo sapiens, UniProt P01116+P62937, G12D) data, IC50 value: 1 to 10 µM

###

# targetUnderTest: KRAS G12D (Homo sapiens, UniProt P01116+P62937, G12D)
# experimentDescription: Disruption of BRAF RBD interaction with Ras (FRET / MOA assay, with Cyclophilin A)
# Type: biochemical
# runConditions: KRAS G12D FRET data, IC50
pIC50: −log10 of the molar value.
valueType: pIC50

// for each compound in input: emit pIC50
1. CCN1C[C@@H](C(=O)N(C)[C@H](C(=O)N[C@H]2Cc3cc(O)cc(c3)-c3ccc4c(c3)c(c(-c3cnccc3COC)n4CC)CC(C)(C)COC(=O)[C@@H]3CCCN(N3)C2=O)C(C)C)CC1=O [Example A262]
2. CCn1c(-c2cnccc2COC)c2c3cc(ccc31)-c1cc(O)cc(c1)C[C@H](NC(=O)[C@H](C(C)C)N(C)C(=O)CO)C(=O)N1CCC[C@H](N1)C(=O)OCC(C)(C)C2 [Example A43]
3. CCn1c(-c2cnccc2COC)c2c3cc(ccc31)-c1cc(O)cc(c1)C[C@H](NC(=O)[C@H](C(C)C)N(C)C(=O)[C@H](C)O)C(=O)N1CCC[C@H](N1)C(=O)OCC(C)(C)C2 [Example A93]
4. CCn1c(-c2cnccc2COC)c2c3cc(ccc31)-c1cc(O)cc(c1)C[C@H](NC(=O)[C@H](C(C)C)N(C)C(=O)[C@H]1CCN(S(C)(=O)=O)C1)C(=O)N1CCC[C@H](N1)C(=O)OCC(C)(C)C2 [Example A24]

Ans.
["5.00 to 6.00", "5.00 to 6.00", "5.00 to 6.00", "5.00 to 6.00"]
